Every entry's value here was drawn from PubChem BioAssay (NCI).

Tested on: M14 melanoma
PROCEDURE_TEXT: NCI tumour cell line growth inhibition, 48 h; in the data active = GI50 below about 0.43 µM; inactive = the rest
Outcomes: active, inactive

- COMPOUND: "CCCNc1nc(-c2ccc(OC)cc2)nc2ccccc12"
  CLASS: "inactive"
- COMPOUND: "CC1=C(C(=O)Nc2ccc(F)c(Cl)c2)C(c2cccc(Cl)c2)NC(=O)N1 (stereo not given)"
  CLASS: "inactive"
- COMPOUND: "C=C1C(=O)O[C@H]2[C@H]1CC/C(Cn1cc(CCC)nn1)=C\\CC[C@@]1(C)O[C@@H]21"
  CLASS: "inactive"
- COMPOUND: "COc1ccccc1Nc1nc(-c2cc3cccc(C(F)(F)F)c3oc2=O)cs1"
  CLASS: "active"
- COMPOUND: "Nc1nc(Cl)nc2c1ncn2C1O[C@H](CO)[C@@H](O)[C@@H]1F (stereo not given in full)"
  CLASS: "active"
- COMPOUND: "COc1ccc2c(CNCCCCO)cc3cc4c(cc3c2c1)OCO4"
  CLASS: "inactive"
- COMPOUND: "Cc1ccc(/C=C2\\CCOC2=O)cc1"
  CLASS: "inactive"
- COMPOUND: "CC(CN(CP(=O)([O-])[O-])CP(=O)([O-])[O-])N(CP(=O)([O-])[O-])CP(=O)([O-])[O-].N[C@@H]1CCCC[C@@H]1N.[Pt+2] (stereo not given)"
  CLASS: "inactive"
- COMPOUND: "O=Nc1c(-c2cccc([N+](=O)[O-])c2)nc2ncccn12"
  CLASS: "inactive"
- COMPOUND: "COC(=O)c1oc2c(C(=O)/C=C/c3ccc(OC)cc3)c(OCCCN3CCCCC3)ccc2c1C"
  CLASS: "inactive"

----------
System: HS 578T breast
PROCEDURE_TEXT: NCI tumour cell line growth inhibition, 48 h; in the data active means GI50 below about 0.43 µM; inactive means the rest
Outcomes: active, inactive

- COMPOUND: "Oc1ccc2ccccc2c1/C=N\\Nc1ccccn1"
  CLASS: "inactive"
- COMPOUND: "Fc1ccc(Nc2nc(Nc3ccc(-c4nc5ccccc5[nH]4)cc3)nc(N3CCCC3)n2)cc1"
  CLASS: "inactive"
- COMPOUND: "COc1cc2c(cc1-c1c(C)noc1C)ncc1nc(C3CCCCC3)n(C3CCC(OC(F)F)CC3)c12 (centres undefined)"
  CLASS: "inactive"
- COMPOUND: "CC(O)CN(CCN(CC(C)O)CC(C)O)CC(C)O.O=[N+]([O-])O.[Cu+2] (centres undefined)"
  CLASS: "inactive"
- COMPOUND: "COc1ccc(/C=C(/C(=O)N2CCNCC2)c2cc(OC)c(OC)c(OC)c2)cc1O"
  CLASS: "inactive"
- COMPOUND: "CSC(=S)N/N=C(\\C)c1ccccn1"
  CLASS: "inactive"
- COMPOUND: "Cc1cc(S(N)(=O)=O)c(S/C(=N\\NS(=O)(=O)c2ccc(Cl)cc2)c2ccc(Cl)cc2)cc1Cl"
  CLASS: "inactive"
- COMPOUND: "CC(C)[C@]12O[C@H]1[C@@H]1O[C@]13[C@]1(O[C@H]1C[C@H]1c4c(C(=O)c5ccccc5)oc(OC(=O)c5ccccc5)c4CC[C@@]13C)[C@@H]2O"
  CLASS: "active"
- COMPOUND: "O=C1c2cccnc2-c2nc(-c3ccc([N+](=O)[O-])cc3)cc3c2c1nc1ccccc13"
  CLASS: "inactive"
